# run description: osmotic lysis modulators in infected erythrocytes, primary screen, PSAC antagonist project, cell-based, P. falciparum Indochina, OD700, 3 h (AID 1156)
# condition notes: higher = more signal, called active from +8 up or from −8 down
Classification field: fulfilled = z-score at or over 0.7; not fulfilled = z-score under 0.7.

CCOC(=O)NN=C1C[C@@H](O)[C@@H](O)[C@@H]2[C@@H]3C(=O)N(C4CCCCC4)C(=O)[C@@H]3CC[C@@H]12 : not fulfilled
CO[C@@H]1COC(=O)CC=C[C@@H](C)COC(=O)[C@H](COCc2ccccc2)NC(=O)CC=C[C@H]1C : not fulfilled
O=C1[C@H]2[C@H]3[C@H](O)[C@H](O)CC(=NO[C@@H]4O[C@H](CO)[C@@H](O)[C@H](O)[C@H]4O)[C@@H]3CC[C@H]2C(=O)N1Cc1ccccc1 : fulfilled
[N-]=[N+]=NCc1ccccc1C[C@]1(C(=O)NCc2ccccc2)N=C(c2ccc(OCCCO)cc2)O[C@H]1c1ccccc1N=[N+]=[N-] : fulfilled
C=CCC(OC(C)=O)[C@@H]1[C@@H](N(Cc2cc3ccccc3o2)C(=O)Cc2ccc(F)cc2)c2cc(OCCCO)ccc2N1C(=O)Cc1ccc(OC)cc1 (stereo partly drawn) : not fulfilled
CCc1cc2c(nc1CC)CCN(CCC(C)=NO[C@@H](C)c1cc(-c3c(C)cc(C)cc3C)no1)C2 : fulfilled
COCCCNC(=O)[C@@]1(Sc2ccc(C)cc2)CC(=O)N(Cc2ccccc2)[C@@H]1c1ccc(CO)cc1I : not fulfilled
COc1cccc([C@H]2Oc3ccc(OC)cc3C(=NO[C@H](C)c3cn([C@@H]4COC[C@H]4O)nn3)[C@@H]2O)c1 : fulfilled
CC(C)OC(=O)C=C1C[C@@H](c2ccc(C#N)cc2)O[C@@H](c2ccc(C#N)cc2)O1 : fulfilled
COC(=O)C1=C(C)N(Cc2ccccc2)[C@]23O[C@](C(=O)OC)(C(=O)N2[C@@H]1c1ccccc1)[C@H]1CCOC(=O)[C@H]13 : fulfilled
CCOC(=O)CCN1C(=O)[C@H]2[C@H]3[C@H](O)[C@H](O)CC(=NOC[C@@H](O)COCc4ccco4)[C@H]3CC[C@H]2C1=O : not fulfilled
CCCNC(=O)[C@@H]1c2ccccc2C(=O)N(c2ccc(C)cn2)[C@H]1c1ccc(CO)cc1 : not fulfilled
CC(C)(C)N1CC=CC23O[C@@H]4C=CCCOC(=O)C4[C@H]2C(=O)N(CCCCCO)[C@@H]3C1=O (stereo partly drawn) : fulfilled
COC(=O)[C@@H]1CC[C@H](C)[C@@H](c2ccc(C)cc2)N1C(=O)c1ccc(C=NOC[C@@H](O)COCc2ccco2)cc1 : not fulfilled
CCCC[C@@H]1C[C@H]1[C@@H](NS(=O)(=O)c1cccc2cccnc12)c1ccc(-c2ccccc2)cc1 : not fulfilled
Cc1ccc(C2CC=C(C(=O)O)CN2S(=O)(=O)c2ccc(C)cc2)cc1 (stereo not drawn) : fulfilled
CCOC(=O)C[C@H]1[C@H](OC(=O)c2ccc(C(=O)c3ccccc3)cc2)[C@@H](NC(=O)c2ccc(-c3ccccc3)cc2)c2cc(OCCCO)ccc2N1C(=O)c1ccc2ccccc2n1 : not fulfilled
O=C1C[C@@H](O)[C@@H](O)[C@@H]2[C@@H]3C(=O)N(C4CCCCC4)C(=O)[C@@H]3CC[C@H]12 : not fulfilled
C[C@@H]1CC[C@H]2C(=O)O[C@H](COc3ccc(C(C)(C)C)cc3)CN2[C@H]1c1ccc(Br)cc1 : not fulfilled
CCOc1ccc(N2C(=O)/C(=C/C=C/c3ccccc3OC)S(=O)(=O)C2c2cccc([N+](=O)[O-])c2)cc1 (stereo not drawn) : not fulfilled
CCCNC(=O)OC[C@H]1O[C@H](CCON=C2[C@H]3CCn4c(=O)n(-c5ccccc5)c(=O)n4[C@H]3[C@H](O)[C@@H]3O[C@H]23)C=C[C@@H]1Oc1ccc(OC)cc1 : not fulfilled
O=C1[C@H]2[C@H]3[C@H](O)[C@H](O)CC(=NOC[C@@H](O)COCc4ccco4)[C@@H]3CC[C@H]2C(=O)N1c1ccc(F)cc1F : fulfilled

---

# run description: E. coli acrAB mutant growth effects, primary screen, E. coli filamentation inducers, strain DRC39, OD650, 48 h (AID 1179);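 note: screen aims at cell division blockers that make cells filament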
# condition notes: E. coli DRC39 delta-acrAB growth, higher = more signal, called active from +8 up or from −8 down
# cutoff -0.4 applies to z-score; >= gives 1.0, < gives 0.0

C[C@@H]1CC[C@H]2C(=O)O[C@H](COc3ccc(C(C)(C)C)cc3)CN2[C@H]1c1ccc(Br)cc1 : 0.0
COc1ccc(O[C@H]2C=C[C@@H](c3ccccc3)O[C@@H]2COC(=O)CCC(C)=NO[C@@H](C)c2cc(-c3c(C)cc(C)cc3C)no2)cc1 : 0.0
[N-]=[N+]=NCc1ccccc1[C@@H]1OC(c2ccc(OCCCO)cc2)=N[C@]1(Cc1ccccc1)C(=O)N1CCOCC1 : 1.0
CC(C)=CCCC(C)=CCON=C1[C@H]2CCn3c(=O)n(C)c(=O)n3[C@H]2[C@H](O)[C@@H]2O[C@H]12 : 1.0
CCCNC(=O)OC[C@H]1O[C@H](CCON=CC[C@@H]2C=C[C@H](OC(C)=O)[C@@H](COC(C)=O)O2)C=C[C@@H]1Oc1ccc(OC)cc1 : 1.0
CCOc1ccc(N2C(=O)/C(=C/C=C/c3ccccc3OC)S(=O)(=O)C2c2cccc([N+](=O)[O-])c2)cc1 (configuration not stated) : 1.0
CC(=O)OC[C@H]1O[C@@H](ON=C(C)CCN2CCc3nc(-c4ccccc4)c(-c4ccccc4)cc3C2)[C@H](OC(C)=O)[C@@H](OC(C)=O)[C@@H]1OC(C)=O : 0.0

---

# study system: Concanavalin-A (Canavalia ensiformis) (UniProt P02866)
# Sequence (P02866 whole entry, looked up): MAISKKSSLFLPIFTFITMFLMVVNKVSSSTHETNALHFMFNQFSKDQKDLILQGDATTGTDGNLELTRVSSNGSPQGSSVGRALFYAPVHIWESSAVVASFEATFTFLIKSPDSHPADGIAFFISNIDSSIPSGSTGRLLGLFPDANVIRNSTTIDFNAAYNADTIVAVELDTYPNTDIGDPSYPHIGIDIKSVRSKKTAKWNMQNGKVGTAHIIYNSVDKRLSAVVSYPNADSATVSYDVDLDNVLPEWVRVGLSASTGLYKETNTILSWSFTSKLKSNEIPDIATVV
# run description: ConA small-molecule binders, primary screen, artefact control for SMM control protein annotation, biochemical, small-molecule microarray, Alexa647 label, 635 nm (AID 1127);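 note: z combines 667 nm emission intensity with signal-to-noise across three replicate slides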
# condition notes: ConA-A647 binding fluorescence, higher = more signal
Tick T if composite z-score is 0.4 or greater. Tick F if composite z-score is less than 0.4.

O=C1[C@H]2[C@H]3[C@H](O)[C@H](O)CC(=NOC[C@@H](O)COCc4ccco4)[C@H]3CC[C@H]2C(=O)N1Cc1ccc2c(c1)OCO2 : F
O=C(CS)NCCCCCNC(=O)[C@H]1C[C@H]2C(=O)N3CCC[C@H]3C(=O)N2[C@H]1c1cccc(OCCO)c1 : T
C=C(COC)/C(=C/C[C@H](OC(=O)c1ccncc1)c1ccc(CO)o1)c1cc(C(=O)OC)ccc1OC : T
COC(=O)C1=C(C)[C@@H](O)[C@@H](C)[C@H](c2c(OC)c(OC)c(C)c(OC)c2OC)O1 : T
O=C1C[C@@H](O)[C@@H](O)[C@@H]2[C@@H]3C(=O)N(Cc4ccc5c(c4)OCO5)C(=O)[C@@H]3CC[C@@H]12 : T
O=C1O[C@@H](c2ccccc2)[C@@H](c2ccccc2)N2[C@@H](c3ccc(O)cc3)[C@]3(C(=O)Nc4ccccc43)[C@@H](C(=O)O)[C@H]12 : T
O[C@@H](Cc1ccccc1)[C@H]1C2C=CCCC(c3ccccc3)=C2CN1Cc1cccc(Cl)c1 (some centres undefined) : F
COCCOC(=O)N1C(=O)[C@@]2(c3cc(C#CC4(O)CCCCCC4)ccc31)[C@H](c1ccc(OCCO)cc1)N1[C@H](c3ccccc3)[C@H](c3ccccc3)OC(=O)[C@H]1[C@@H]2C(=O)NC[C@H](O)c1ccccc1 : T
COC(=O)C1=C(C)N(Cc2ccccc2)[C@]23O[C@](C(=O)OC)(C(=O)N2[C@@H]1c1ccccc1)[C@H]1CCOC(=O)[C@H]13 : F
COc1ccc(O[C@H]2C=C[C@@H](c3ccccc3)O[C@@H]2COC(=O)CCC(C)=NOC[C@@H](C)[C@H](OCc2ccccc2)C(C)C)cc1 : F
COc1ccc(O[C@H]2C=C[C@@H](c3ccccc3)O[C@@H]2COC(=O)CCC(C)=NO[C@H](C)c2cn([C@@H]3COC[C@H]3O)nn2)cc1 : T
CCc1cc2c(nc1CC)CCN(CCC(C)=NO[C@@H](C)c1cc(-c3c(C)cc(C)cc3C)no1)C2 : T
CCCCCCc1nc(CCCc2cc3c(c(CCCCCC)n2)[Si](C(C)C)(C(C)C)O[C@H]3c2ccccc2)cc2c1[Si](C(C)C)(C(C)C)O[C@H]2c1ccccc1 : F
O=C1O[C@@H](c2ccccc2)[C@@H](c2ccccc2)N2[C@@H](c3ccc(OCCO)cc3)[C@]3(C(=O)Nc4ccc(C#CCCO)cc43)[C@@H](C(=O)N3CCCCCCC3)[C@H]12 : T

---

Catalogue of composite z-score values
# Tested on: glycogen synthase kinase-3 (GSK3A per assay name; protocol says GSK3B)
# run description: GSK3 binders on small-molecule microarrays, primary screen, biochemical, small-molecule microarray, 635 nm fluorescence, GSK3A (AID 1103); note: the record names both GSK3A and GSK3B
# condition notes: small-molecule microarray binding, fluorescence 635 nm; higher = more signal
readout name: composite z-score

NCCCCCNC(=O)[C@@H]1C[C@@H]2C(=O)N3CCC[C@H]3C(=O)N2[C@@H]1c1cccc(OCCO)c1 : 0.821
COCCOC(=O)N1C(=O)[C@@]2(c3cc(C#Cc4ccc(OC)cc4)ccc31)[C@H](c1ccc(O)cc1)N1[C@H](c3ccccc3)[C@H](c3ccccc3)OC(=O)[C@H]1[C@@H]2C(N)=O : 1.25
O=C1[C@H]2[C@H]3[C@H](O)[C@H](O)CC(=NO[C@@H]4O[C@H](CO)[C@@H](O)[C@H](O)[C@H]4O)[C@@H]3CC[C@H]2C(=O)N1c1ccc(F)cc1F : 0.703
